Source: PubChem BioAssay AID1159580

Test: chemical genetic growth profiling, strain panel (AID 1159580);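 note: tested at 20 µM; growth read once vehicle control cultures reached saturation at 30 °C; 1 = growth at the plate median or of vehicle wells; lower values mean less growth of the strain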
Details: S. cerevisiae deletion strains, growth OD, locus YNL233W, strain BNI4, stronger effect = lower value
Among all 5,500 compounds or so, about 2,000 (36%) were called active. Inconclusive results (about 18%) are left out. The list shows a part of the results.
Below, each entry is listed alongside its reported normalized growth.

COMPOUND	normalized growth
OC(CCN1CCCC1)(c1ccccc1)C1CCCCC1 (stereo not given)	1.01
C#C[C@]1(O)CCC2C3CCC4=CC(=O)CC[C@@H]4C3CC[C@@]21CC (stereo not given in full)	0.992
C#C[C@]1(OC(C)=O)CCC2C3CCC4=CC(=O)CC[C@@H]4C3CC[C@@]21C (stereo not given in full)	0.977
C[C@@H]1CC[C@H]2[C@@H](C)C(=O)O[C@@H]3O[C@@]4(C)CC[C@@H]1[C@]32OO4	0.81
COc1ccc2c(c1)c(CC(=O)OCC(=O)O)c(C)n2C(=O)c1ccc(Cl)cc1	1.02

---

Experiment: chemical genetic growth profiling, strain panel (AID 1159580);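 note: tested at 20 µM; growth read once vehicle control cultures reached saturation at 30 °C; 1 = growth at the plate median or of vehicle wells; lower values mean less growth of the strain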
Details: S. cerevisiae deletion strains, growth OD, locus YLR258W, strain gsy2, stronger effect = lower value
Hit rate of the full screen: of about 5,500 compounds, about 2,000 (36%) were called active. About 18% were inconclusive and are not listed. This is one part of the list.

COMPOUND	normalized growth
Cc1cc(O)cc(=O)o1	1.02
NC(Cc1c[nH]c2ccccc12)C(=O)O (stereo not given)	1.01
C[C@]12CCC(=O)C=C1CCC1C2[C@@H](O)C[C@@]2(C)C1CC[C@]2(O)C(=O)CO (stereo not given in full)	0.971
Cc1cc(O)cc(C)c1Cl	0.924
FC(F)(F)c1ccccc1-n1ccnc1	1.03
N=C(N)SCCN	1
CCOP(=S)(OCC)Oc1nc(Cl)c(Cl)cc1Cl	0.965
COc1cc(C(=O)O[C@H]2CC[C@@]3(C)[C@@H]4CC[C@H]5[C@]6(O)C[C@H](O)[C@@]7(O)[C@@H](CN8C[C@@H](C)CC[C@H]8[C@@]7(C)O)[C@]6(O)C[C@@]53O[C@]24O)cc(OC)c1OC	0.98
Clc1ccccc1C(c1ccccc1)(c1ccccc1)n1ccnc1	0.0599
CCCCCCCCCCCC[C@H](C(=O)O)[C@@H](C)C(=O)O	0.979
CC1OC(=O)C(C(C)C)NC(=O)C(C(C)C)OC(=O)C(C(C)C)NC(=O)C(C)OC(=O)C(C(C)C)NC(=O)C(C(C)C)OC(=O)C(C(C)C)NC(=O)C(C)OC(=O)C(C(C)C)NC(=O)C(C(C)C)OC(=O)C(C(C)C)NC1=O (stereo not given)	0.349
O=c1oc2cc(O)ccc2s1	1
CCCOc1ccccc1-c1nc2n[nH]nc2c(=O)[nH]1	1.03
COc1ccc2c(c1)c(CC(=O)OCC(=O)O)c(C)n2C(=O)c1ccc(Cl)cc1	1
NNC(=O)c1ccncc1	0.99
C#C[C@]1(OC(C)=O)CCC2C3CCC4=C/C(=N\O)CCC4C3CC[C@@]21CC (stereo not given in full)	0.495
NCCC(=O)N[C@@H](Cc1cnc[nH]1)C(=O)O	1.02
OC(CCN1CCCCC1)(c1ccccc1)C1CCCCC1 (stereo not given)	0.992
COc1cc(N)c(Cl)cc1C(=O)NC1CCN(Cc2ccccc2)CC1	0.994
COc1c(-c2coc3cc4c(cc3c2=O)CC(O)C(C)(C)O4)ccc2c1C=CC(C)(C)O2 (stereo not given)	0.965
Cc1ccc(S(=O)(=O)NC(=O)NN2CC3CCCC3C2)cc1 (stereo not given)	0.99
CC(C)CCCC1(C)C=Cc2c(O)c3c(c(CCC(C)C)c2O1)OC12C(CC4CC1C(C)(C)OC2(CCC(C)C(=O)O)C4O)C3=O (stereo not given)	0.998
COc1ccc2c(c1)c(CC(=O)O)c(C)n2C(=O)c1ccc(Cl)cc1	0.978
NC12CC3CC(CC(C3)C1)C2	0.993
CC(C)=CCCC1(C)C=Cc2c(O)c3c(c(CC=C(C)C)c2O1)OC12C(=CC4CC1C(C)(C)OC2(C/C=C(/C)C(=O)O)C4=O)C3=O (stereo not given)	0.861
O=C(CNC(=O)c1ccc(Cl)cc1)NO	1.02
O=C(O)CC(O)(CC(=O)O)C(=O)O	1.01
C/C=C(/C)C(=O)OC1CCC2(C)C3CCC4C5(O)CC(O)C6(O)C(CN7CC(C)CCC7C6(C)O)C5(O)CC42OC13O (stereo not given)	0.998
CCCCCCCCCCCCCCC(C(=O)O)C(O)(CC(=O)OC)C(=O)O (stereo not given)	1
C[C@@H]1CC[C@H]2[C@@H](C)C(O)O[C@@H]3O[C@@]4(C)CC[C@@H]1[C@]32OO4 (stereo not given in full)	0.279
COC(=O)C[C@H]1C(C)(C)C(=O)[C@@H]2CC3C4=CC(=O)O[C@@H](c5ccoc5)[C@]4(C)CCC3[C@@]1(C)C2=O (stereo not given in full)	0.981
C[C@@H]1CC[C@H]2[C@@H](C)C(=O)O[C@@H]3O[C@@]4(C)CC[C@@H]1[C@]32OO4	0.918
Cc1cc(-n2c(=O)[nH]c(=O)n(C)c2=O)ccc1Oc1ccc(SC(F)(F)F)cc1	0.705
CC(C)(C#N)O[C@@H]1O[C@H](CO)[C@@H](O)[C@H](O)[C@H]1O	1.01
Cc1ccnc(NS(=O)(=O)c2ccc(N)cc2)n1	0.975
CC1(C)CC[C@]2(C)CC[C@]3(C)C(=CCC4[C@@]5(C)CC[C@H](O)C(C)(C)C5CC[C@]43C)C2C1 (stereo not given in full)	1.01
CCOC(=O)OC(C)OC(=O)C1N2C(=O)C(NC(=O)[C@H](N)c3ccccc3)C2SC1(C)C (stereo not given in full)	1
CC(C)=CCCC1(C)C=Cc2c(O)c3c(c(CC=C(C)C)c2O1)OC12C(=CCCC1C(C)(C)O[C@@]2(C/C=C(\C)C(=O)O)C(=O)O)C3=O (stereo not given in full)	0.924
COc1c(-c2coc3cc4c(cc3c2=O)CC(OC(C)=O)C(C)(C)O4)ccc2c1C=CC(C)(C)O2 (stereo not given)	1.03
Cc1ccc(N=CN(C)C=Nc2ccc(C)cc2C)c(C)c1	0.98
